molecular target: TRIP8b(241-602); assay: fluorescence polarisation
READOUT NAME: IC50 (nM)
Numbers only, in nM.

**Query** # lookup: IC50 of DAEKPRFASNL [unlabeled HCN1 peptide]
**Result** 890
